# TESTED_SYSTEM: T1, human CD20 antigen (human, UniProt P11836 1-297)
# T1 construct: whole, on cells; also called human CD20 molecule
# T1 sequence (looked up): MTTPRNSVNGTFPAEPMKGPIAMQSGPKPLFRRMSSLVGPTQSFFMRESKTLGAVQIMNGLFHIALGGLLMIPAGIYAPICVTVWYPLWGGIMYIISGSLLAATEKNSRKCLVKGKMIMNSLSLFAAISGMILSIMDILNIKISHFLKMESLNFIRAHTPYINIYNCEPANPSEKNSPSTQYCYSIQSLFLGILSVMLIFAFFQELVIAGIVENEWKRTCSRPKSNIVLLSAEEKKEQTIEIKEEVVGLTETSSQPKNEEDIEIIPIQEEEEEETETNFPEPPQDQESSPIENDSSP
# TEST_DESCRIPTION: Scatchard analysis on Raji cells, FITC-labeled Protein A detection; repeated from Table 8
MEASURE: Kd (nM)
Number in nM, nothing else.

Query block: # return recorded Kd for input humanized antibody 1782 clone fv (antibody, V domains shown, kg1 constructs; also called h1782fv; hz1782-fv02) VH: QVQLVQSGAELKKPGASVKVSCKASGYTFTSYWMHWVKQAPGQGLEWIGYITPSTGYTDYNKKFKDKATLTADRSSSTAYMELSSLRSEDTAVYYCARSGPYFDVWGAGTTVTVSS VL: DILLTQSPATLSVSPGERATLSCRASQNIGTSIHWYQQRPGQSPRLLIKYASESFSGIPSRFSGSGSGTDFTLTINSLQPEDIADYYCQQSNSWPFTFGSGTKLEIK
Result block: 6.76

Query block: # return recorded Kd for input humanized antibody 1782 clone ss (antibody, V domains shown, kg1 constructs; also called h1782ss; hz1782-ss21) VH: QVQLVQSGAEVKKPGASVKVSCKASGYTFTSYWMHWVKQAPGQGLEWIGYITPSTGYTDYNQKFQGKATLTADRSSSTAYMELSSLRSEDTAVYYCARSGPYFDVWGAGTTVTVSS VL: DILLTQSPATLSLSPGERATLSCRASQNVGTSLHWYQQKPGQSPRLLIKYASERFTGIPSRFSGSGSGTDFTLTISSLEPEDFADYYCQQSNSWPFTFGSGTKLEIK
Result block: 8.64

Query block: # return recorded Kd for input humanized antibody 1782 clone ff (antibody, V domains shown, kg1 constructs (C kappa / C gamma1 vector); also called h1782ff; hz1782-ff14) VH: QVQLVQSGAEVKKPGASVKVSCKASGYTFTSYWMHWVKQAPGQGLEWIGYITPSTGYTDYNKKFKDKATLTADRSSSTAYMELSSLRSEDTAVYYCARSGPYFDVWGAGTTVTVSS VL: DILLTQSPATLSVSPGERATLSCRASQNIGTSIHWYQQRPGQSPRLLIKYASESFSGIPSRFSGSGSGTDFTLTINSLQPEDIADYYCQQSNSWPFTFGSGTKLEIK
Result block: 4.38

Query block: # return recorded Kd for input humanized antibody 1782 clone sf (antibody, V domains shown, kg1 constructs; also called h1782sf; hz1782-sf23) VH: QVQLVQSGAEVKKPGASVKVSCKASGYTFTSYWMHWVKQAPGQGLEWIGYITPSTGYTDYNKKFKDKATLTADRSSSTAYMELSSLRSEDTAVYYCARSGPYFDVWGAGTTVTVSS VL: DILLTQSPATLSLSPGERATLSCRASQNVGTSLHWYQQKPGQSPRLLIKYASERFTGIPSRFSGSGSGTDFTLTISSLEPEDFADYYCQQSNSWPFTFGSGTKLEIK
Result block: 7.43
